Sourced from paper PMC6271529

test system: benzodiazepine (BDZ)-binding sites; test: Radioligand binding assay, [3H]flunitrazepam, rat cerebral cortex; settings: compound 1 × 10^−6 M;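 note: low percentages indicate weak binding of the compound to the site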
Endpoint name: Percent of Specific Binding, BDZ

// solved cases for Percent of Specific Binding, BDZ follow
1) Fc1ccccc1-n1c(-c2cccc(Cl)c2)n[nH]c1=S [Compound 1a] = 14%
2) Fc1ccccc1-n1c(-c2ccc(Cl)cc2)n[nH]c1=S [Compound 12a] = 18%
3) Cc1ccc(-n2c(-c3cccc(Cl)c3)nn(CN3CCOCC3)c2=S)cc1 [Compound 22a] = 12%
4) S=c1[nH]nc(-c2ccc(Cl)cc2)n1-c1ccccc1Br [Compound 15a] = 21%

Next compound, Percent of Specific Binding, BDZ to be filled in.
Query: Determine its reported Percent of Specific Binding, BDZ: Cc1ccc(-n2c(-c3cccc(Cl)c3)nn(CN3CCN(c4ccc(F)cc4)CC3)c2=S)cc1 [Compound 24a]
Reply: 13%
